assay: MTD (maximum tolerated dose) acute toxicity in mice; type: in vivo, mouse; details: female, mouse, in vivo; BALB/C mice, intravenous, observed 17 days
Quantity Name: MTD at 17 days
Write the numeric value and follow it with the unit.

// known answers, use as guide
Compound	MTD at 17 days
COc1cccc2c1C(=O)c1c(O)c3c(c(O)c1C2=O)C[C@](O)(C(=O)CO)CC3OC1C[C@H](NC(=O)OCc2ccc(NC(=O)C(CC(N)=O)NC(=O)C(C)NC(=O)C(NC(=O)[C@H](O)[C@H](O)[C@@H](O[C@@H]3O[C@H](CO)[C@H](O)[C@H](O)[C@H]3O)[C@H](O)CO)C(C)C)cc2)[C@H](O)[C@H](C)O1 (stereo partly drawn)	100 mg/kg
CC(NC(=O)C(NC(=O)[C@H](O)[C@H](O)[C@@H](O[C@@H]1O[C@H](CO)[C@H](O)[C@H](O)[C@H]1O)[C@H](O)CO)C(C)C)C(=O)NC(CC(N)=O)C(=O)Nc1ccc(COC(=O)N(C)CCNC(=O)c2cc(Oc3ccc(NC(=O)Nc4ccc(Cl)c(C(F)(F)F)c4)cc3)ccn2)cc1 (stereo partly drawn)	300 mg/kg

Alright, here's another compound for you.
Per the records, this compound ( CC(NC(=O)C(C)NC(=O)[C@H](O)[C@H](O)[C@@H](O[C@@H]1O[C@H](CO)[C@H](O)[C@H](O)[C@H]1O)[C@H](O)CO)C(=O)NC(CC(N)=O)C(=O)Nc1ccc(COC(=O)N2CC(C)(C)c3ccc(NC(=O)c4cccnc4NCc4ccncc4)cc32)cc1 (stereo partly drawn) ) has MTD at 17 days equal to 280 mg/kg
